Molecular target: S. pyogenes SKKanGAS, kanamycin survival, BacTiterGlo, 6 h
Test: S. pyogenes SKKanGAS kanamycin growth inhibitors – SKKanGAS strain, luminescence, dose confirmation, streptokinase promoter inhibitor project, dose response (AID 1902);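 also: lower survival reflects blocked streptokinase promoter driving kanamycin resistance gene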
Calls of active or inactive are those of the source.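 The calls were made as follows: active = EC50 no more than a set limit of log units above the highest dose; inactive = the rest.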
Hi there, use one of these labels in your reply, thanks! active, inactive

Task: Each compound tested received a call. Report the one for CCOc1cccc2sc(Nc3nc4ccc(NC(C)=O)cc4s3)nc12 .
Output: active

Task: Each compound tested received a call. Report the one for CCCCCCCCCCC[N+](C)(C)CC/C=C1/c2ccccc2Sc2ccc(Cl)cc21 .
Output: active

Task: Each compound tested received a call. Report the one for FC(F)(F)c1nc(N2CCN(c3ccccc3)CC2)nc2c1CCCCC2 .
Output: active

Task: Each compound tested received a call. Report the one for Cc1noc(C)c1C(=O)Nc1ccc2ccccc2c1 .
Output: inactive

Task: Each compound tested received a call. Report the one for N=C1SCC(=O)N1c1ncc(Cc2ccc(F)cc2)s1 .
Output: active

Task: Each compound tested received a call. Report the one for O=C(O)c1ccc(N/N=C/c2ccc(-c3cccc(Cl)c3)o2)cc1 .
Output: active

Task: Each compound tested received a call. Report the one for COc1ccc(-c2oc3ccc(N4CCOCC4)cc3c2C#CC2(O)CCCCC2)cc1 .
Output: active

Task: Each compound tested received a call. Report the one for CCCCCCSc1cc(-c2nc3cnccn3c2NCc2ccccc2)ccc1OC .
Output: active

Task: Each compound tested received a call. Report the one for CC(C)=CCc1cc([C@@H]2CC(=O)c3ccc(O)c(CC=C(C)C)c3O2)ccc1O .
Output: active

Task: Each compound tested received a call. Report the one for O=S(=O)(Nc1ccc(-c2csc(-c3ccccc3)n2)cc1)c1ccc(F)cc1 .
Output: active

Task: Each compound tested received a call. Report the one for CNC(=S)N/N=C/c1cn(Cc2ccc(C)cc2)c2ccccc12 .
Output: active

====

Target: S. pyogenes SKKanGAS, kanamycin survival, BacTiterGlo, 6 h
Assay: S. pyogenes SKKanGAS kanamycin growth inhibitors – SKKanGAS strain, luminescence, dose confirmation, streptokinase promoter inhibitor project, dose response (AID 1902);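 also: lower survival reflects blocked streptokinase promoter driving kanamycin resistance gene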
Activity calls are given as the source filed them.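 How the source made its calls: active means EC50 no more than a set limit of log units above the highest dose; inactive means the rest.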
Hi there, use one of these labels in your reply, thanks! Yes = active, No = inactive

Task: Each compound tested received a call. Report the one for O=C(/C=C/c1ccccc1Cl)c1ccccc(=O)c1O .
Output: Yes

Task: Each compound tested received a call. Report the one for CCCn1c(NC(=O)c2ccc(Cl)c(S(=O)(=O)N3CCCC3)c2)nc2ccccc21 .
Output: Yes

Task: Each compound tested received a call. Report the one for O[C@@H]1CCCN2CCc3c([nH]c4ccccc34)[C@H]12 .
Output: No

Task: Each compound tested received a call. Report the one for Cc1ccc2sc(NNC(=O)c3cc(-c4cccs4)nc4ccccc34)nc2c1C .
Output: Yes

Task: Each compound tested received a call. Report the one for COc1ccc(NC(=O)CN(C)C(=O)/C=C/c2cn(-c3ccccc3)nc2-c2ccc(F)cc2)cc1 .
Output: Yes

====

Target: S. pyogenes SKKanGAS, kanamycin survival, BacTiterGlo, 6 h
Test: S. pyogenes SKKanGAS kanamycin growth inhibitors – SKKanGAS strain, luminescence, dose confirmation, streptokinase promoter inhibitor project, dose response (AID 1902);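 also: lower survival reflects blocked streptokinase promoter driving kanamycin resistance gene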
measure: EC50

Task: Return EC50 for the following compound: CN1c2ccsc2/C(=N/Nc2ccccc2)CS1(=O)=O
Output: 2210 nM

Task: Return EC50 for the following compound: COc1ccccc1C(=O)NNC(=O)C(=O)Nc1cccc(Cl)c1C
Output: 3440 nM

Task: Return EC50 for the following compound: O=C(COn1nnc2ccc(C(F)(F)F)cc21)Nc1nnc(-c2ccccc2)o1
Output: 2510 nM

Task: Return EC50 for the following compound: Cn1c(=O)c(C(=O)NNC(=O)c2ccccc2Br)c(O)c2ccccc21
Output: 7510 nM

Task: Return EC50 for the following compound: CCn1cc(C(=O)O)c(=O)c2cc(F)c(N3CCN(C(=S)NC(=O)c4cc(OC)cc(OC)c4)CC3)cc21
Output: 2910 nM

Values from PubChem BioAssay AID1902
